measured.on: human PPARα receptor (Homo sapiens, UniProt Q07869)
Construct: transiently transfecting GAL4-hPPARα-LBD or GAL4-hPPARγ-LBD constructs; GAL4 (fusion partner)
Sequence (Q07869 239-466 limits assumed): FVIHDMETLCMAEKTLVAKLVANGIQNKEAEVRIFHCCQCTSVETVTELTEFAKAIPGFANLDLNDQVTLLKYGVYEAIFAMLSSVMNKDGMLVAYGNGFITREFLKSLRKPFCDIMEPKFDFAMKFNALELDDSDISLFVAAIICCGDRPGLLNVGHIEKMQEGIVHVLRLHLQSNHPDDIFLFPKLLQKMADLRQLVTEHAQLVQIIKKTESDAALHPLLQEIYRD
assay.comment: GAL4-hPPARα-LBD functional transactivation (luciferase) assay in HEK293 cells
conditions.used: GAL4-hPPARα-LBD in HEK293 cells, 5×GAL4RE-Luciferase
measure.name: pEC50
Give bare numbers, as −log10 of the molar value.

(Q) Which pEC50 value is on record for COC(=O)N(CC(=O)O)Cc1cc(OCc2nc(-c3ccc(Cl)cc3)oc2C)ccc1F [Compound 2] ?
(A) 8.40

Reference for the values: patent US7795291B2
